Biological target: T1, marmoset monkey IL4Rα-his protein (marmoset monkey)
T1 construct: Custom made by Sino biological; no cleavage site stated; also called cal-IL4Rα-his; Cal-IL4Rα
T1 chain: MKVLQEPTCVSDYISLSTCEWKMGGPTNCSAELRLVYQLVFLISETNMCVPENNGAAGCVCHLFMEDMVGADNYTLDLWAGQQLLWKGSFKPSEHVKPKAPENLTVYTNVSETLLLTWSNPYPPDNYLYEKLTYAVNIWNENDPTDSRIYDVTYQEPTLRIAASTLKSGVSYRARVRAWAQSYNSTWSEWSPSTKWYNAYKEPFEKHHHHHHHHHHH
Assay: indirect ELISA on coated cal-IL4Rα-his
measure_name: EC50

binder	measure_name	endpoint_value
chimeric antibody C2C1A1A1 (antibody, human IgG4 S228P, kappa, V domains shown, Mouse variable domains on human IgG4/kappa; also called Chimeric C2C1A1A1; chC2C1A1A1) VH: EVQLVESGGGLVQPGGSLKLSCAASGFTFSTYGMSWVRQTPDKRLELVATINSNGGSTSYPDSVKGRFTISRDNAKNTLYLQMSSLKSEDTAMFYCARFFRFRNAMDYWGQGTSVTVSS VL: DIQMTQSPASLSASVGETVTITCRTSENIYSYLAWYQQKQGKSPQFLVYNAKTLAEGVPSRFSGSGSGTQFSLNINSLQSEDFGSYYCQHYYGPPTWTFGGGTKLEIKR	EC50	0.623 nM
huC2C1A1A1-V14 (antibody, human IgG4 S228P, kappa, V domains shown, Humanized, human IgG4/kappa) VH: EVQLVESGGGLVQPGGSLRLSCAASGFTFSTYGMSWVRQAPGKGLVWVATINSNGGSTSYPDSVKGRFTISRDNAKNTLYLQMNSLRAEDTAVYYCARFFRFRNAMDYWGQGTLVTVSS VL: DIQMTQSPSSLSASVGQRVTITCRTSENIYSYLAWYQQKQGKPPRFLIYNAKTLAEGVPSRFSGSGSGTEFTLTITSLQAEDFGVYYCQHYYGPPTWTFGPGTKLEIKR	EC50	0.555 nM
mouse antibody C2C1A1A1 (antibody, V domains shown, Mouse hybridoma mAb; also called Mouse C2C1A1A1) VH: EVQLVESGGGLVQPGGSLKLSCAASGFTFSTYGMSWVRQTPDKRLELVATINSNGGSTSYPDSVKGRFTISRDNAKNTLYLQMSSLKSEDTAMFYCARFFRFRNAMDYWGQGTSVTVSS VL: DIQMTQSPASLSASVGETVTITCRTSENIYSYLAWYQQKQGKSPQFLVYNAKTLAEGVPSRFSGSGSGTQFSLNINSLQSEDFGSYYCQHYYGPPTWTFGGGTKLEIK	EC50	0.574 nM

The reported measurements were obtained from patent US20230105029A1.
